Experiment: Peptide binding assay on titanium beads (streptavidin-AP detection, binding curve EC50)
Details: Table 3, substituted peptides labeled with biotin, binding to titanium; read-out: EC50
Description: Relative binding strengths (affinities) of the peptides to metal, also used as a measure of binding specificity, were determined by testing serial dilutions of the peptide for binding to a target substrate comprising metal, as represented by titanium or steel. […]
pEC50: −log10 of the molar value.
Class fulfilled: pEC50 at least 6. Class not fulfilled: pEC50 below 6.

SHKHPVTPRFFVVYSK [SEQ ID NO: 65]    fulfilled

Determine whether measured pEC50 meets or exceeds 6 for SHKHPVTPRFFVVVSK [SEQ ID NO: 67] fulfilled

Determine whether measured pEC50 meets or exceeds 6 for SHKHPVTPRGGVVESK [SEQ ID NO: 60] not fulfilled

Determine whether measured pEC50 meets or exceeds 6 for SHKHGGGGRFFVVESK [SEQ ID NO: 61] not fulfilled

Determine whether measured pEC50 meets or exceeds 6 for SGGGPVTPRFFVVESK [SEQ ID NO: 64] not fulfilled

Determine whether measured pEC50 meets or exceeds 6 for SHKHPVTPRFFVVGSK [SEQ ID NO: 68] fulfilled

###

Test: Peptide binding assay on zirconium metal alloy
Conditions: Table 6
MEASUREMENT_KIND: EC50

Solved cases (5 shown):
SHKHGGHKHGGHKHGSSGK [SEQ ID NO: 72]    < 0.1 µM
SKHKGGHKHGSSGK [SEQ ID NO: 73]    < 0.5 µM
SHKHGGHKHGSSGK [SEQ ID NO: 77]    < 1 µM
SKHKGGGGKHKGSSGK [SEQ ID NO: 75]    < 0.1 µM
SHKHGGKHKGSSGK [SEQ ID NO: 74]    < 0.1 µM

So what's the measured EC50 for this one? SKHKGGKHKGSSGK [SEQ ID NO: 71] < 0.1 µM

So what's the measured EC50 for this one? SKKHGGKKHGSSGK [SEQ ID NO: 70] < 0.1 µM

So what's the measured EC50 for this one? SKHKGGKHKGGKHKGSSGK [SEQ ID NO: 79] < 0.05 µM

###

Assay: Peptide binding assay on titanium beads (streptavidin-AP detection, binding curve EC50)
Conditions: Table 7, peptide monomer versus branched polymers, binding to titanium; read-out: EC50
MEASUREMENT_KIND: EC50 (nM)
Expressed in nM, but write only the number.

So what's the measured EC50 for this one? SKHKGGKHKGGKHKGSSGK [SEQ ID NO: 79] 25

###

Assay: Peptide binding assay on titanium beads (streptavidin-AP detection, binding curve EC50)
Settings: Table 4, second-generation peptides, biotinylated at C-terminal lysine, binding to titanium; read-out: EC50
Ends that are not written are not given here.
MEASUREMENT_KIND: pEC50
Lab note — pEC50 values are minus log10 of concentrations in M.

So what's the measured pEC50 for this one? SHKHGGHKHGSSGK [SEQ ID NO: 77] 6.70

So what's the measured pEC50 for this one? SKKHGGKKHGSSGK [SEQ ID NO: 70] 7.89

So what's the measured pEC50 for this one? SKHKGGHKHGSSGK [SEQ ID NO: 73] 7.35

So what's the measured pEC50 for this one? SHGHGGHGHGSSGK [SEQ ID NO: 80] 5.40

So what's the measured pEC50 for this one? SKHKGGKHKGSSGK [SEQ ID NO: 71] 7.59

So what's the measured pEC50 for this one? SKHKGGGGKHKGSSGK [SEQ ID NO: 75] 6.96

So what's the measured pEC50 for this one? SKHKGGKHKGGKHKGSSGK [SEQ ID NO: 79] 7.60

So what's the measured pEC50 for this one? SHKHGGHKHGGHKHGSSGK [SEQ ID NO: 72] 7.46

So what's the measured pEC50 for this one? SHKHGGKHKGSSGK [SEQ ID NO: 74] 7.22

So what's the measured pEC50 for this one? SHHKGGHHKGSSGK- (not fully specified; printed as SHHKGGHHKGSSGK-; also: name ends with '-': unspecified C-terminal conjugate) [SEQ ID NO: 78] 6.30

So what's the measured pEC50 for this one? SHKHGGGGHKHGSSGK [SEQ ID NO: 76] 6.82

###

This section presents sequences with their documented EC50 values.
Test: Peptide binding assay on titanium beads (streptavidin-AP detection, binding curve EC50)
Conditions: Table 5, spacing between triplets, biotinylated peptides, binding to titanium; read-out: EC50
Expressed in nM, but write only the number.

Solved cases (4 shown):
SKHKKHKGSSGK [SEQ ID NO: 81]    60
SKHKGGKHKGSSGK [SEQ ID NO: 71]    26
SKHKGGGGGKHKGSSGK [SEQ ID NO: 84]    70
SKHKGGGKHKGSSGK [SEQ ID NO: 83]    75

So what's the measured EC50 for this one? SKHKGKHKGSSGK [SEQ ID NO: 82] 60

###

Assay: Peptide binding assay on titanium beads (streptavidin-AP detection, binding curve EC50)
Conditions: biotinylated peptides
Square brackets hold non-standard residues; d marks the D form. Ends that are not written are not given here.
MEASUREMENT_KIND: binding to titanium (in words)

ssSDKCHKHWYCYESKYGGSsr ([code s][code s]SDKCHKHWYCYESKYGGS[code s][code r]; cysteine pairing not given here; also: biotinylated (site not given here)) [SEQ ID NO: 51]    showed binding
ssCSHNHHKLTAKHQVAHKCsr ([code s][code s]CSHNHHKLTAKHQVAHKC[code s][code r]; not fully specified; printed as ssCSHNHHKLTAKHQVAHKCsr; cysteine pairing not given here) [SEQ ID NO: 48]    showed binding
ssCDQNDIFYTSKKSHKSHCsr ([code s][code s]CDQNDIFYTSKKSHKSHC[code s][code r]; not fully specified; printed as ssCDQNDIFYTSKKSHKSHCsr; cysteine pairing not given here) [SEQ ID NO: 49]    showed binding

###

Assay: Peptide binding assay on glass
Conditions: Table 6
MEASUREMENT_KIND: EC50

Solved cases (7 shown):
SKHKGGKHKGGKHKGSSGK [SEQ ID NO: 79]    < 0.05 µM
SKHKGGGGKHKGSSGK [SEQ ID NO: 75]    < 0.1 µM
SHKHGGHKHGGHKHGSSGK [SEQ ID NO: 72]    < 0.05 µM
SKHKGGHKHGSSGK [SEQ ID NO: 73]    < 0.5 µM
SHKHGGHKHGSSGK [SEQ ID NO: 77]    < 1 µM
SKHKGGKHKGSSGK [SEQ ID NO: 71]    < 0.5 µM
SHKHGGKHKGSSGK [SEQ ID NO: 74]    < 0.5 µM

Then this sequence:
So what's the measured EC50 for this one? SKKHGGKKHGSSGK [SEQ ID NO: 70] < 0.1 µM

###

Test: Peptide binding assay on stainless steel
Conditions: Table 6; read-out: EC50 (μM) stainless steel
Experimental: Relative binding strengths (affinities) of the peptides to metal, also used as a measure of binding specificity, were determined by testing serial dilutions of the peptide for binding to a target substrate comprising metal, as represented by titanium or steel. […]
MEASUREMENT_KIND: EC50

Solved cases (3 shown):
SHKHGGHKHGSSGK [SEQ ID NO: 77]    < 1 µM
SKHKGGKHKGGKHKGSSGK [SEQ ID NO: 79]    < 0.05 µM
SKHKGGGGKHKGSSGK [SEQ ID NO: 75]    < 0.5 µM

Then this sequence:
So what's the measured EC50 for this one? SKHKGGKHKGSSGK [SEQ ID NO: 71] < 0.5 µM

###

Experiment: Peptide binding assay on titanium beads (streptavidin-AP detection, binding curve EC50)
Details: Table 3, substituted peptides labeled with biotin, binding to titanium; read-out: EC50
This section presents sequences with their documented EC50 values.
Expressed in nM, but write only the number.

SHKHPVTPRFFVVNSK [SEQ ID NO: 69]    800
SHKHPVTPRFFVVKSK [SEQ ID NO: 66]    50

So what's the measured EC50 for this one? SHKHPVTPRFFVVESK [SEQ ID NO: 59, Parent] 4000

So what's the measured EC50 for this one? SHKHPVTPRGGGGESK [SEQ ID NO: 62] 3000

###

Test: Peptide binding assay on stainless steel
Details: Table 6; read-out: EC50 (μM) stainless steel
MEASUREMENT_KIND: EC50

Solved cases (3 shown):
SKHKGGHKHGSSGK [SEQ ID NO: 73]    < 0.5 µM
SHKHGGKHKGSSGK [SEQ ID NO: 74]    < 0.5 µM
SHKHGGHKHGGHKHGSSGK [SEQ ID NO: 72]    < 0.1 µM

Then this sequence:
So what's the measured EC50 for this one? SKKHGGKKHGSSGK [SEQ ID NO: 70] < 0.1 µM
